- target_entity: T1, human serum albumin (human, UniProt P02768 25-609)
- T1 construct: Bought protein, immobilized on a CM5 chip by amine coupling; also called Human SA
- assay_protocol: SPR (Biacore 8K), albumin immobilized on CM5 chip, 25 C, 1:1 kinetic fit
measurement_name: koff (s⁻¹)
I only need the number, in s⁻¹, no unit after it.

- binder: "RLN Analog 11 (other, Single-chain fusion: VHH - (G4Q)5 L1 - RLN2 B chain (desB1) - L2 of thirteen residues - RLN2 A chain (desA1-4)) EVQLLESGGGLVQPGGSLRLSCAASGRYIDETAVAWFRQAPGKEREFVAGIGGGVDITYYADSVKGRFTISRDNSKNTLYLQMNSLRPEDTAVYYCAARPGRPLITSKVADLYPYWGQGTLVTVSSGGGGQGGGGQGGGGQGGGGQGGGGQSWMEEVIKLCGRELVRAQIAICGMSTWSGGGSGGSGGSGGGALANKCCHVGCTKRSLARFC"
  koff / s⁻¹: 0.00021
- binder: "RLN Analog 2 (other, Single-chain fusion: VHH - (PGPA)8 L1 - RLN2 A chain - L2 - RLN2 B chain (desB1)) EVQLLESGGGLVQPGGSLRLSCAASGRYIDETAVAWFRQAPGKEREFVAGIGGGVDITYYADSVKGRFTISRDNSKNTLYLQMNSLRPEDTAVYYCAARPGRPLITSKVADLYPYWGQGTLVTVSSPGPAPGPAPGPAPGPAPGPAPGPAPGPAPGPAQLYSALANKCCHVGCTKRSLARFCGGGSGGSGGGSWMEEVIKLCGRELVRAQIAICGMSTWS"
  koff / s⁻¹: "9.5e-05"
- binder: "RLN Analog 3 (other, Single-chain fusion: VHH - (G4Q)5 L1 - RLN2 B chain (desB1) - L2 - RLN2 A chain) EVQLLESGGGLVQPGGSLRLSCAASGRYIDETAVAWFRQAPGKEREFVAGIGGGVDITYYADSVKGRFTISRDNSKNTLYLQMNSLRPEDTAVYYCAARPGRPLITSKVADLYPYWGQGTLVTVSSGGGGQGGGGQGGGGQGGGGQGGGGQSWMEEVIKLCGRELVRAQIAICGMSTWSGGGSGGSGGGQLYSALANKCCHVGCTKRSLARFC"
  koff / s⁻¹: 0.00011
- binder: "RLN Analog 10 (other, Single-chain fusion: RLN2 B chain (desB1) - L2 - RLN2 A chain - (PGPQ)8 L1 - VHH (C-terminal)) SWMEEVIKLCGRELVRAQIAICGMSTWSGGGSGGSGGGQLYSALANKCCHVGCTKRSLARFCPGPQPGPQPGPQPGPQPGPQPGPQPGPQPGPQEVQLLESGGGLVQPGGSLRLSCAASGRYIDETAVAWFRQAPGKGREFVAGIGGGVDITYYADSVKGRFTISRDNSKNTLYLQMNSLRPEDTAVYYCAARPGRPLITSKVADLYPYWGQGTLVTVSSPP"
  koff / s⁻¹: 0.0002
- binder: "RLN Analog 8 (other, Single-chain fusion: VHH - (PGPQ)8 L1 - RLN2 B chain (desB1) - L2 - RLN2 A chain) EVQLLESGGGLVQPGGSLRLSCAASGRYIDETAVAWFRQAPGKGREFVAGIGGGVDITYYADSVKGRFTISRDNSKNTLYLQMNSLRPEDTAVYYCAARPGRPLITSKVADLYPYWGQGTLVTVSSPGPQPGPQPGPQPGPQPGPQPGPQPGPQPGPQSWMEEVIKLCGRELVRAQIAICGMSTWSGGGSGGSGGGQLYSALANKCCHVGCTKRSLARFC"
  koff / s⁻¹: 0.00011

Query string: Give the measured koff of RLN Analog 13 (other, Single-chain fusion: VHH - (G4Q)5 L1 - RLN2 A chain (desA1-4) - L2 - RLN2 B chain (desB1)) EVQLLESGGGLVQPGGSLRLSCAASGRYIDETAVAWFRQAPGKGREFVAGIGGGVDITYYADSVKGRFTISRDNSKNTLYLQMNSLRPEDTAVYYCAARPGRPLITSKVADLYPYWGQGTLVTVSSGGGGQGGGGQGGGGQGGGGQGGGGQALANKCCHVGCTKRSLARFCGGGSGGSGGGSWMEEVIKLCGRELVRAQIAICGMSTWS .
Result string: 0.00019

Query string: Give the measured koff of RLN Analog 1 (other) EVQLLESGGGLVQPGGSLRLSCAASGRYIDETAVAWFRQAPGKEREFVAGIGGGVDITYYADSVKGRFTISRDNSKNTLYLQMNSLRPEDTAVYYCAARPGRPLITSKVADLYPYWGQGTLVTVSSGGGGQGGGGQGGGGQGGGGQGGGGQQLYSALANKCCHVGCTKRSLARFCGGGSGGSGGGSWMEEVIKLCGRELVRAQIAICGMSTWS .
Result string: 0.00011
